tested target: Rat brain mu opioid receptor (Rattus norvegicus, UniProt P33535)
Construct: from tissue; host or cells: forebrain of male Sprague Dawley rats
Sequence (P33535 whole entry): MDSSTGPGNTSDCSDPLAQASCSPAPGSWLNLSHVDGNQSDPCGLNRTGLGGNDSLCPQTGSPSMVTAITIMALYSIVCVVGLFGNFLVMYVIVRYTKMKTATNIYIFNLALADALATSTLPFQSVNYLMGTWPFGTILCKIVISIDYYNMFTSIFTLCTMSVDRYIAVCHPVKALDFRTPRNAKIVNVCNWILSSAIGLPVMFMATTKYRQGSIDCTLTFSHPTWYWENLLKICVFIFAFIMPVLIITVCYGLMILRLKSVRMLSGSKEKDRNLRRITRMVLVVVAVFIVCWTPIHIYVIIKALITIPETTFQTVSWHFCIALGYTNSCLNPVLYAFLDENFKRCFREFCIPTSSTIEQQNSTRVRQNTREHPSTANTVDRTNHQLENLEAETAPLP
experimental details: Rat brain mu opioid receptor binding assay ([3H]DAMGO)
measurement context: rMOR Ki
pKi: −log10 of the molar value.
Below, each entry is listed with its recorded pKi.

compound | comparison sign | pKi
CCN(CC)C(=O)c1ccc2c(c1)Oc1c(F)cccc1C2=C1CC2CCC(C1)N2 [Compound 102] | = | 5.54
CCN(CC)C(=O)c1ccc2c(c1)Oc1ccccc1C2C1CCN(C)CC1 (stereo not shown) [Compound 43] | < | 5.00
CCN(CC)C(=O)c1ccc2c(c1)Sc1ccccc1C2=C1CC2CCC(C1)N2Cc1ccc2c(c1)OCO2 [Compound 47] | = | 7.32
CCCNC(=O)c1ccc2c(c1)Oc1ccccc1C2=C1CC2CCC(C1)N2 [Compound 63] | = | 5.76
CCN(CC)C(=O)c1ccc2c(c1)Oc1c(cccc1-c1ccsc1)C2=C1CC2CCC(C1)N2 [Compound 99] | = | 5.46
CCN(CC)C(=O)c1ccc2c(c1)Oc1c(O)cccc1C2=C1CC2CCC(C1)N2 [Compound 100] | = | 8.23
NC(=O)c1ccc2c(c1)Oc1ccccc1C2=C1CC2CCC(C1)N2 [Compound 65] | = | 6.07
CC(C)NC(=O)c1ccc2c(c1)Oc1ccccc1C2=C1CC2CCC(C1)N2 [Compound 58] | = | 5.53
CCN(CC)C(=O)c1ccc2c(c1)Sc1ccccc1C2=C1CC2CCC(C1)N2 [Compound 48] | < | 7.00
CCN(CC)C(=O)c1ccc2c(c1)Oc1ccc(-c3ccc[nH]3)cc1C2=C1CC2CCC(C1)N2 [Compound 93] | < | 5.00
CCN(CC)C(=O)c1ccc2c(c1)Oc1ccc(Br)cc1C2=C1CC2CCC(C1)N2 [Compound 83] | = | 4.75
CCCN(CCC)C(=O)c1ccc2c(c1)Oc1ccccc1C2=C1CC2CCC(C1)N2 [Compound 60] | = | 6.08
CCN(CC)C(=O)c1ccc2c(c1)Oc1cc(O)ccc1C2=C1CC2CCC(C1)N2 [Compound 76] | = | 6.55
C#CCN1CCC(=C2c3ccccc3Oc3cc(C(=O)N(CC)CC)ccc32)CC1 [Compound 33] | = | 5.27
CCN(CC)C(=O)c1ccc2c(c1)Oc1ccccc1C2=C1CCN(Cc2ccccn2)CC1 [Compound 29] | = | 6.44
CCN(CC)C(=O)c1ccc2c(c1)Sc1ccccc1C2=C1CC2CCC(C1)N2CC1CC1 [Compound 49] | < | 7.00

* * *

tested target: human delta opioid receptor (Homo sapiens)
Construct: purchased Receptor Biology, Inc. (Baltimore, Md.); host or cells: CHO cells expressing the human delta receptor (membranes)
Sequence (P41143 whole entry): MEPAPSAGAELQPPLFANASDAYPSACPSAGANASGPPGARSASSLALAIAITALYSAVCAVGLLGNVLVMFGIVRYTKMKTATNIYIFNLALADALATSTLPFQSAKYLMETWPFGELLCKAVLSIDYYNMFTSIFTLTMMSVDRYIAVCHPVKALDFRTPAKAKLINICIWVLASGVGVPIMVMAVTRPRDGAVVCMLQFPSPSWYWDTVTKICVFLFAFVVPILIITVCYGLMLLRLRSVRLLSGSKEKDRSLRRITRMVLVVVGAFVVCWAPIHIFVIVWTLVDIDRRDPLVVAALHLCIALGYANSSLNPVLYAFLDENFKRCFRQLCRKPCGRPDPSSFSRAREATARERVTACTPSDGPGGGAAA
experimental details: [35S]GTPγS binding assay in CHO-hδ cell membranes
Assay type: biochemical
measurement context: human delta opioid receptor GTPγS functional assay; read-out: hDOR GTPγS EC50
Protocol: CHO-hδ cell membranes are purchased from Receptor Biology, Inc. (Baltimore, Md.). 10 mg/ml of membrane protein is suspended in 10 mM TRIS-HC pH 7.2, 2 mM EDTA, 10% sucrose. Membranes are maintained at 4-8° C. […] The pellet membranes (20 μg/ml) are preincubated with SPA (10 mg/ml) at 25° C. for 45 min in the assay buffer. […] The basal binding is tested in the absence of agonists and non-specific binding is tested in the presence of 10 μM unlabeled GTP S. The data are analyzed on a Top counter.
Could you mark each record met if its EC50 falls strictly under 300 nM, and not met if it equals or exceeds it?

compound | label class
CCN(CC)C(=O)c1ccc2c(c1)OCc1ccccc1C2=C1CCN(Cc2ccc3c(c2)OCO3)CC1 | not met
CCN(CC)C(=O)c1ccc2c(c1)Oc1ccccc1C2=C1CCN(C(=N)N)CC1 | met
C=CCN1CCC(=C2c3ccccc3COc3cc(C(=O)N(CC)CC)ccc32)CC1 | met
CCN(CC)C(=O)c1ccc2c(c1)Oc1ccccc1C2C1CCNCC1 (centres unmarked) | met
CCN(CC)C(=O)c1ccc2c(c1)OCc1ccccc1C2=C1CCN(C)CC1 | not met
CCN(CC)C(=O)c1ccc2c(c1)Oc1ccccc1C2=C1CCN(Cc2ccccc2O)CC1 | not met
CCN(CC)C(=O)c1ccc2c(c1)Oc1ccccc1C2=C1CCN(CCc2ccccc2)CC1 | not met
CCN(CC)C(=O)c1ccc2c(c1)OCc1ccccc1C2=C1CCN(CCc2ccccc2)CC1 | not met
CCN(CC)C(=O)c1ccc2c(c1)Oc1ccccc1C2=C1CCN(CCO)CC1 | met
C=CCN1CCC(=C2c3ccccc3Oc3cc(C(=O)N(CC)CC)ccc32)CC1 | not met
CCN(CC)C(=O)c1ccc2c(c1)Sc1ccccc1C2=C1CC2CCC(C1)N2Cc1ccc2c(c1)OCO2 | met
